Tested Target: T1, human APJ receptor (human, UniProt P35414 1-380)
T1 sequence (looked up): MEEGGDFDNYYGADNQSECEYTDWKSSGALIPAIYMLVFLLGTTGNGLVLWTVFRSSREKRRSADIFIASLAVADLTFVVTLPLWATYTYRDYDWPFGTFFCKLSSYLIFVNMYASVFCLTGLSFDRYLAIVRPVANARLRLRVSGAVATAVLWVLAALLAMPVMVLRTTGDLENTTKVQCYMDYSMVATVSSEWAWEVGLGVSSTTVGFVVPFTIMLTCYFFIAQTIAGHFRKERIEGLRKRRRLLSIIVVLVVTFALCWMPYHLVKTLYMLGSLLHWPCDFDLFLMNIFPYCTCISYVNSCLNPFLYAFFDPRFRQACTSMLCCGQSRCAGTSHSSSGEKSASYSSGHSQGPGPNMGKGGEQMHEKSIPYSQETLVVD
Measurement Description: cell-based or functional assay
Starred links: 1 amine or outer side, 2 acyl side, 3 side chain; linkers in the order of their positions; H or OH if unused. Non-standard residues stand in square brackets, D forms with d. Primed or numbered codes have the meaning given here. *: point of attachment. AC4Abu = α-carboxy-4-aminobutyric acid, O=C(C(CCN[*:1])C(=O)[*:3])[*:2]; Oic = O=C(O)[C@@H]1C[C@@H]2CCCC[C@@H]2N1; Phe(4-Cl) = N[C@@H](Cc1ccc(Cl)cc1)C(=O)O; dPhe(4-Cl) = N[C@H](Cc1ccc(Cl)cc1)C(=O)O; γGlu = O=C(O)[C@H](CCC(=O)[*:2])N[*:1]; 1Nal = N[C@@H](Cc1cccc2ccccc12)C(=O)O; NMeR = CN[C@@H](CCCNC(=N)N)C(=O)O; Tridecanoyl = CCCCCCCCCCCCC(=O)*; hArg = N=C(N)NCCCC[C@H](N)C(=O)O; Cha = N[C@@H](CC1CCCCC1)C(=O)O; αMeP = C[C@@]1(C(=O)O)CCCN1; AC4Abu″ = not defined here; β3hP = O=C(O)C[C@@H]1CCCN1; Nle = CCCC[C@H](N)C(=O)O; Pip′ = not defined here; AEEA = NCCOCCOCC(=O)O; Aib = CC(C)(N)C(=O)O; BLeu = β-leucine; βAla = NCCC(=O)O
Recorded Endpoint: EC50 Human APJ Receptor (GTPγS assay)

Binder	Recorded Endpoint	Data Value
Tridecanoyl-[γGlu][AEEA][AEEA]QRP[NMeR][Cha]SHKG[Oic][Nle][Pip′][Phe(4-Cl)]-OH [Apelin polypeptide SEQ ID NO: 445]	EC50 Human APJ Receptor (GTPγS assay)	4.29 nM
Tridecanoyl-[γGlu][AEEA][AEEA][dQ]R[αMeP][hArg][BLeu]SHKG[Oic][Nle][Phe(4-Cl)]-OH [Apelin polypeptide SEQ ID NO: 519]	EC50 Human APJ Receptor (GTPγS assay)	9.74 nM
XXXQRPRLSHKGXXPF ({TDA}[AC4Abu][Aeea][Aeea]qR[aMePro][hArg][BLeu]SHKG[Pip][Nle][aMePro][4-Cl-F]{COOH}) [Apelin polypeptide SEQ ID NO: 503]	EC50 Human APJ Receptor (GTPγS assay)	0.16 nM
Tridecanoyl-[γGlu][AEEA][AEEA]QRP[NMeR]LSHKGP[Nle][βAla][Phe(4-Cl)]-OH (SMILES CCCCCCCCCCCCC(=O)N[C@@H](CCC(=O)NCCOCCOCC(=O)NCCOCCOCC(=O)N[C@@H](CCC(N)=O)C(=O)N[C@@H](CCCNC(=N)N)C(=O)N1CCC[C@H]1C(=O)N(C)[C@@H](CCCNC(=N)N)C(=O)N[C@@H](CC(C)C)C(=O)N[C@@H](CO)C(=O)N[C@@H](Cc1c[nH]cn1)C(=O)N[C@@H](CCCCN)C(=O)NCC(=O)N1CCC[C@H]1C(=O)N[C@@H](CCCC)C(=O)NCCC(=O)N[C@@H](Cc1ccc(Cl)cc1)C(=O)O)C(=O)O) [Apelin polypeptide SEQ ID NO: 425]	EC50 Human APJ Receptor (GTPγS assay)	0.0937 nM
Tridecanoyl-[γGlu][AEEA][AEEA]QRP[NMeR][BLeu]SHKG[Oic][Nle]P[Phe(4-Cl)]-OH [Apelin polypeptide SEQ ID NO: 391]	EC50 Human APJ Receptor (GTPγS assay)	0.565 nM
Tridecanoyl-[AC4Abu][AEEA][AEEA]QRP[NMeR][Cha]SHKG[Oic][Nle][dPhe(4-Cl)]-OH (SMILES CCCCCCCCCCCCC(=O)NCCC(C(=O)O)C(=O)NCCOCCOCC(=O)NCCOCCOCC(=O)N[C@@H](CCC(N)=O)C(=O)N[C@@H](CCCNC(=N)N)C(=O)N1CCC[C@H]1C(=O)N(C)[C@@H](CCCNC(=N)N)C(=O)N[C@@H](CC1CCCCC1)C(=O)N[C@@H](CO)C(=O)N[C@@H](Cc1c[nH]cn1)C(=O)N[C@@H](CCCCN)C(=O)NCC(=O)N1[C@H](C(=O)N[C@@H](CCCC)C(=O)N[C@H](Cc2ccc(Cl)cc2)C(=O)O)C[C@@H]2CCCC[C@@H]21) [Apelin polypeptide SEQ ID NO: 410]	EC50 Human APJ Receptor (GTPγS assay)	2.47 nM
Tridecanoyl-[γGlu][AEEA][AEEA]QRPELSHKGP[Nle]P[Phe(4-Cl)]-OH (SMILES CCCCCCCCCCCCC(=O)N[C@@H](CCC(=O)NCCOCCOCC(=O)NCCOCCOCC(=O)N[C@@H](CCC(N)=O)C(=O)N[C@@H](CCCNC(=N)N)C(=O)N1CCC[C@H]1C(=O)N[C@@H](CCC(=O)O)C(=O)N[C@@H](CC(C)C)C(=O)N[C@@H](CO)C(=O)N[C@@H](Cc1c[nH]cn1)C(=O)N[C@@H](CCCCN)C(=O)NCC(=O)N1CCC[C@H]1C(=O)N[C@@H](CCCC)C(=O)N1CCC[C@H]1C(=O)N[C@@H](Cc1ccc(Cl)cc1)C(=O)O)C(=O)O) [Apelin polypeptide SEQ ID NO: 477]	EC50 Human APJ Receptor (GTPγS assay)	0.423 nM
Tridecanoyl-[AC4Abu″][AEEA][AEEA]QR[β3hP][NMeR][Cha]SHKG[Oic][Nle]P[Phe(4-Cl)]-OH (reading uncertain) [Apelin polypeptide SEQ ID NO: 441]	EC50 Human APJ Receptor (GTPγS assay)	1.9 nM
Tridecanoyl-[γGlu][AEEA][AEEA][dQ][hArg]P[dR][Cha]SHKG[Oic][Nle]P[1Nal]-OH [Apelin polypeptide SEQ ID NO: 367]	EC50 Human APJ Receptor (GTPγS assay)	26.3 nM
Tridecanoyl-[γGlu][AEEA][AEEA][dQ]RP[NMeR][Cha]SHKG[Pip′][Nle][Aib][Phe(4-Cl)]-OH [Apelin polypeptide SEQ ID NO: 499]	EC50 Human APJ Receptor (GTPγS assay)	0.0236 nM
Tridecanoyl-[γGlu][AEEA][AEEA]QRPPLSHKGP[Nle]P[Phe(4-Cl)]-OH (SMILES CCCCCCCCCCCCC(=O)N[C@@H](CCC(=O)NCCOCCOCC(=O)NCCOCCOCC(=O)N[C@@H](CCC(N)=O)C(=O)N[C@@H](CCCNC(=N)N)C(=O)N1CCC[C@H]1C(=O)N1CCC[C@H]1C(=O)N[C@@H](CC(C)C)C(=O)N[C@@H](CO)C(=O)N[C@@H](Cc1c[nH]cn1)C(=O)N[C@@H](CCCCN)C(=O)NCC(=O)N1CCC[C@H]1C(=O)N[C@@H](CCCC)C(=O)N1CCC[C@H]1C(=O)N[C@@H](Cc1ccc(Cl)cc1)C(=O)O)C(=O)O) [Apelin polypeptide SEQ ID NO: 427]	EC50 Human APJ Receptor (GTPγS assay)	0.17 nM
Tridecanoyl-[AC4Abu″][AEEA][AEEA]QRP[NMeR][Cha]SHKG[Oic][Nle][Aib][Phe(4-Cl)]-OH (reading uncertain) [Apelin polypeptide SEQ ID NO: 382]	EC50 Human APJ Receptor (GTPγS assay)	0.469 nM
